Biological target: G-protein coupled receptor 151 (Homo sapiens)
Assay: GPR151 agonism via beta-arrestin recruitment – cell-based, PathHunter beta-arrestin, luminescence, set 2, confirmation (AID 1508608);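 note: 0% = plate median of compound wells and 100% = EA reagent high control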
Details: GPR151 PathHunter beta-arrestin cells, 90 min, at 11.2 µM, stronger effect = higher value, 100% = signal from added EA reagent
The whole screen tested about 2,300 compounds, of which about 20 (0.9%) were called active. The sample as a whole holds a higher share of actives than the screen did.
Measured activation of individual entries

{"Compound": "CCC1Oc2ccccc2N(CC(=O)NC2CCCCCC2)C1=O (stereo not drawn)", "activation, %": -3.51}
{"Compound": "CC1C(=O)Nc2ccc(S(=O)(=O)Nc3ccc(F)c(Cl)c3)cc2NC1=O (stereo not drawn)", "activation, %": 4.91}
{"Compound": "COc1ccc(/C=c2\\sc3ncnn3c2=O)c(OC)c1", "activation, %": 1.55}
{"Compound": "Cc1ccc(O)c(NC(=O)COCc2cc(-c3ccc(F)cc3)on2)c1", "activation, %": -1.43}
{"Compound": "O=C(Nc1cc(Cl)ccc1Cl)c1ccccc1O", "activation, %": 26.9}
{"Compound": "C#CCOc1c(Br)cc(C=O)cc1OC", "activation, %": -0.43}
{"Compound": "Cc1cc2c(cc1S(=O)(=O)N1CCN(C3CCCCC3)CC1)OCC(=O)N2", "activation, %": -3.55}
{"Compound": "O=C1NC(=O)C(=Cc2ccc(-c3ccc(O)c([N+](=O)[O-])c3)o2)C(=O)N1", "activation, %": -2.55}
{"Compound": "COc1ccc(/C=N/NC(=O)COc2c(OC)cc([N+](=O)[O-])cc2[N+](=O)[O-])c(O)c1", "activation, %": -9.14}
{"Compound": "CCOc1ccc(-c2cc(C(=O)N/N=C/c3ccc(O)c(OCC)c3)[nH]n2)cc1", "activation, %": -0.84}
{"Compound": "CC1=C(C(=O)OCC(C)C)C(c2ccc(Cl)cc2Cl)NC(=O)N1 (stereo not drawn)", "activation, %": 1.8}
{"Compound": "O=c1c2sc3ccccc3c2n(CCN2CCOCC2)c(=O)n1Cc1ccccn1", "activation, %": 1.89}
{"Compound": "COc1ccc(C2C3=C(CCCC3=O)Nc3nc(SC)nn32)c(OC)c1 (stereo not drawn)", "activation, %": 1.74}
{"Compound": "O=[N+]([O-])c1ccc2nc(SCc3ccc(I)cc3)sc2c1", "activation, %": 3.08}
{"Compound": "O=C(Cn1ncc2c(=O)oc3ccccc3c21)Nc1nc2ccccc2s1", "activation, %": -0.55}
{"Compound": "CC(C)C[C@H]1NC(=O)[C@H]2CN(C(=O)c3cccc(Cl)c3)CCN2C1=O", "activation, %": -3.06}
{"Compound": "CCOC(=O)C1=NN=C2C(=O)N(c3ccccc3)C(=O)C12 (stereo not drawn)", "activation, %": 0.79}
{"Compound": "COc1cc(C2=N/C(=C\\c3cccc(F)c3)C(=O)O2)cc(OC)c1OC", "activation, %": 0.44}
{"Compound": "Cc1ccc(-c2nc3ncccn3c2NC2CCCCC2)o1", "activation, %": -5.26}
{"Compound": "CCOC(=O)c1cnc2c(OC)cccc2c1NC1CCCCCC1", "activation, %": 18.4}
{"Compound": "COC(=O)C1(C(F)(F)F)N=C2C=C(C)C=CN2C(c2ccc(C)cc2)=N1 (stereo not drawn)", "activation, %": 3.12}
{"Compound": "Nc1nc(NC(=O)c2ccccc2)nn1-c1ccccc1", "activation, %": -4.73}
{"Compound": "CCOc1ccc(NC(=O)CN2CCN(CC(=O)Nc3ccc(N(C)C)cc3)CC2)cc1", "activation, %": -2.91}
{"Compound": "CC[n+]1c(/C=C2\\Sc3ccc(C)cc3N2CCO)ccc2ccccc21", "activation, %": 31.2}
{"Compound": "Cc1ccc(NC(=O)c2ccccc2F)c(Br)c1", "activation, %": -2.79}
{"Compound": "CN1CCN(C(CNS(=O)(=O)c2ccccc2)c2cccnc2)CC1 (stereo not drawn)", "activation, %": -1.58}
{"Compound": "Cc1ccc(S(=O)(=O)c2cc3cc([N+](=O)[O-])ccc3oc2=O)cc1C", "activation, %": -3.29}
{"Compound": "O=c1/c(=C\\c2ccccc2Cl)sc2nc3ccccc3n12", "activation, %": -1.37}
{"Compound": "CCc1ccccc1NC(=S)N(CCc1ccc(OC)c(OC)c1)Cc1cccnc1", "activation, %": 12}
{"Compound": "CCCOC1CCCN(Cc2c(C(=O)N(C)CCc3ccccc3)nc3sccn23)C1 (stereo not drawn)", "activation, %": 6.38}
{"Compound": "COC(=O)c1c(NC(=O)COc2cccc(C(F)(F)F)c2)sc2c1CCCC2", "activation, %": -0.94}
{"Compound": "CC(C)[C@@H]1NC(=O)[C@@H]2C[C@H](NCc3cn(C)nc3-c3ccccc3)CN2C1=O", "activation, %": -1.25}
{"Compound": "O=C(CCC(=O)Nc1cc(C(F)(F)F)ccc1Cl)N/N=C\\c1ccccc1O", "activation, %": -2.79}
{"Compound": "CN1CCN(C(=O)c2cc3c(=O)[nH]c4ccccc4c3s2)CC1", "activation, %": -2.02}
{"Compound": "CCN(CC)C(=O)CN(c1ccccc1)S(=O)(=O)c1ccc(C)cc1", "activation, %": 4.39}
{"Compound": "O=C(CCC(=O)Nc1ccc(F)cc1)N/N=C/c1cccc([N+](=O)[O-])c1", "activation, %": 4.76}
{"Compound": "CC(C)C[C@@H]1NC(=O)[C@H]2CN(Cc3cn(C)nc3-c3ccccc3)CCN2C1=O", "activation, %": 3.84}
{"Compound": "COc1ccc2c(c1)N(C)/C(=c1/s/c(=c3/sc4nc5ccccc5n4c3=O)n(C)c1=O)S2", "activation, %": 5.91}
{"Compound": "N#Cc1c(-c2ccccc2)cc(-c2cccs2)nc1SC1CCCCC1O (stereo not drawn)", "activation, %": 4.8}
{"Compound": "O=C(Nc1ncc(C(O)(C(F)(F)F)C(F)(F)F)s1)c1ccccc1Cl", "activation, %": -4.3}
{"Compound": "CC1CC(C)CN(C(=O)c2ccc(NCc3cccs3)c(S(=O)(=O)Nc3cc(F)ccc3F)c2)C1 (stereo not drawn)", "activation, %": 3.31}
{"Compound": "CC(C)CCN1C(=O)C(C)(C)COc2cc(NC(=O)c3ccc4c(c3)OCO4)ccc21", "activation, %": -3.7}
{"Compound": "CC(C)c1ccc(/C=N\\NC(=O)Cn2c(-c3nonc3N)nc3ccccc32)cc1", "activation, %": 0.86}

====

Entries and their activation
Molecular target: G-protein coupled receptor 151 (Homo sapiens)
Assay: GPR151 agonism via beta-arrestin recruitment – cell-based, PathHunter beta-arrestin, luminescence, set 2, confirmation (AID 1508608);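 note: 0% = plate median of compound wells and 100% = EA reagent high control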
Conditions: GPR151 PathHunter beta-arrestin cells, 90 min, at 11.2 µM, stronger effect = higher value, 100% = signal from added EA reagent
Out of some 2,300 compounds screened, about 20 (0.9%) were called active. The sample as a whole holds a higher share of actives than the screen did.

{"Molecule": "FC(F)(F)c1nc(Nc2ccccc2Cl)sc1-c1ccccc1", "Measurement Units": "%", "activation": 4.88}
{"Molecule": "Cc1ccc(-c2[nH]c(=S)[nH]c(=O)c2C#N)cc1", "Measurement Units": "%", "activation": -2.95}
{"Molecule": "CC1CCCCC1NS(=O)(=O)c1ccc2c(c1)CCN2C(=O)C1CC1 (centres undefined)", "Measurement Units": "%", "activation": -8.17}
{"Molecule": "CCCOC(=O)CSC1=C(C#N)C(c2ccco2)C(C(=O)Nc2ccc(Cl)cc2)=C(C)N1 (centres undefined)", "Measurement Units": "%", "activation": -4.25}

====

Biological target: G-protein coupled receptor 151 (Homo sapiens)
Assay: GPR151 agonism via beta-arrestin recruitment – cell-based, PathHunter beta-arrestin, luminescence, set 2, confirmation (AID 1508608);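 note: 0% = plate median of compound wells and 100% = EA reagent high control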
Details: GPR151 PathHunter beta-arrestin cells, 90 min, at 11.2 µM, 100% = signal from added EA reagent
In all, about 2,300 compounds went through this assay and about 20 (0.9%) were called active.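 The calls were made as follows: active = mean activation across replicates above 26.72%, the hit cutoff set for this confirmation screen; inactive = the rest.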 This is one part of a sample in which actives are shown more often than they occur.
Classes used: 1 (yes) (active), 0 (no) (inactive)

{"Compound": "O=C1OC(c2ccc(Br)cc2)=N/C1=C\\c1ccc(Br)cc1", "Group": "0 (no)"}
{"Compound": "O=C(O)c1c(CNCCCSC2CCCCC2)c2ccccc2n1Cc1ccccc1", "Group": "0 (no)"}
{"Compound": "CCOC(=O)C1=C(C)N=c2s/c(=C\\c3cc(C)n(-c4ccc(C(=O)OCC)cc4)c3C)c(=O)n2C1c1ccc(OC)c(OC)c1 (stereo not given)", "Group": "0 (no)"}
{"Compound": "c1ccc(Oc2nc(NC3CC3)c3ncn(-c4ccsc4)c3n2)cc1", "Group": "1 (yes)"}
{"Compound": "O=C(O)CNC(=O)/C=C/c1ccccc1Cl", "Group": "0 (no)"}
{"Compound": "CCc1ccc(C2=CC(c3ccc(OC)c(OC)c3)n3ncnc3N2)cc1 (stereo not given)", "Group": "0 (no)"}
{"Compound": "Clc1nc(NCc2ccccc2)c2ncn(-c3ccccc3)c2n1", "Group": "0 (no)"}
{"Compound": "Cc1ccc(S(=O)(=O)N(CC(=O)N2CCOCC2)CC(=O)N2CCOCC2)cc1", "Group": "0 (no)"}
{"Compound": "CCOc1ccc(NC(=O)/C(C#N)=C/c2c[nH]c3ccccc23)cc1", "Group": "0 (no)"}
{"Compound": "O=C(Nc1ccc(F)cc1)N1CCN(c2ccc3nnc(-c4ccc(F)cc4)n3n2)CC1", "Group": "0 (no)"}
